# Test system: MS2 coat protein
# EXPERIMENT_SUMMARY: apparent Kd, MS2 coat protein; higher = weaker binding; RNA-MaP array
# REPORTED_CONDITIONS: ligand present: theophylline; designed as: ON switch for theophylline
Entries and their apparent Kd values follow.
Numeric answer plus unit only.

(Q) Recall the recorded apparent Kd for `GUAAGACAUGAGGAUCACCCAUGUGUCGAUACCAGCCCUGCCUCUGGCCCUUGGCAGCGACUCGCACACCUCGCACUGCACAAGU` with MS2 coat protein and state it.
(A) 73.2 nM

(Q) Note, next up: `GGAAAAUAUAGGGAUACCAGAUAUGGCGUUGACAUGAGGAUCACCCAUGUCUUAGCAGUGAUCCCUUGGCAGCCCACACCAUCCG`
(A) 34 nM

(Q) Note, next up: `AUUAACUGGUAAGAUACCAGAGUCGGGAUCUACAUGAGGAUCACCCAUGUUCUAAAGUCGCUCCCUUGGCAGCUUCAAUGAGUCG`
(A) 36 nM

###

# System: MS2 coat protein
# EXPERIMENT_SUMMARY: apparent Kd, MS2 coat protein; higher = weaker binding; RNA-MaP array; theophylline 2 mM where present
# REPORTED_CONDITIONS: ligand present: theophylline; designed as: OFF switch for theophylline
READOUT_NAME: apparent Kd
Numeric answer plus unit only.

polymer_sequence=AGCCUCAUACAUGAGGAUCACCCAUGUGAUACCAGUCAGGAAACUGACCCUUGGCAGCGCAUGAGGAUCACCCAUGCGCGAGGCA readout_name="apparent Kd" result="0.113 µM"

(Q) Which apparent Kd is reported for this sequence? `ACGAACGAUAGUGAUACCAGACGUACAUGAGGAUCACCCAUGUUUUGGGUAAGGUUAAUAGUCCCUUGGCAGCACUUUAAGUUCG`
(A) 0.398 µM

(Q) Note, next up: `AUUUUCAUGGUCAUAUAUAUAUCUUCAGAUACCAGACUAUAUUAAGUCCCUUGGCAGCUGUUACAUGAGGAUCACCCAUGUUAUA`
(A) 0.0362 µM

(Q) Note, next up: `AGAAUAACACAUGAGGAUCACCCAUGUGAUACCAGCUAGGAAACUAGCCCUUGGCAGCACAUAAUCCUCAUGAAUGUGCUGAAUA`
(A) 0.0606 µM

###

Entries and their apparent Kd values follow.
# Tested on: MS2 coat protein
# EXPERIMENT_SUMMARY: apparent Kd, MS2 coat protein; higher = weaker binding; RNA-MaP array
# REPORTED_CONDITIONS: ligand present: flavin mononucleotide; designed as: OFF switch for flavin mononucleotide

The examples below pair each entry with its known result.
polymer_sequence=CCCUCGUUAUAGAAGGUCACAUUAAAUAAACAUGAAGGAUAUAUACCCAUUACACAUGAGGAUCACCCAUGUUAGGGCUGGCAU test_system="MS2 coat protein" result="13.6 nM"
polymer_sequence=GCGGGACAUGAGGAUCACCCAUGUGAGGAUAUGUGCAGUGGCAGGGACAGUUAAAAGUACAGAAGGCACAGCCC test_system="MS2 coat protein" result="17.6 nM"
polymer_sequence=UCAAGGUCAGGAUAUUUAUACAGUCGAUUACGAGGAUGUCGAAAGAAGGGACAUGAGGAUCACCCAUGUGGUAC test_system="MS2 coat protein" result="57.7 nM"
polymer_sequence=GAUCUGUGAGGAUAUUGUUAGAGCAUUCAACCAUCGAAUGCCAAGAAGGCACAUGAGGAUCACCCAUGUAGACA test_system="MS2 coat protein" result="10.4 nM"
polymer_sequence=GAACAUGAGGAUCACCCAUGUGCUAUUGGGAAUCGCGCUACAUAGGAUAUAGAGGCGACUGUACUCUAGAAGGAUGCUAGUUUC test_system="MS2 coat protein" result="37.8 nM"
polymer_sequence=GUUUCCUCAGGAUAUUACUGCCGGGACAUGAGGAUCACCCAUGUGGCCUCCGUAAGGCUAUAAGAAGGGAGGCGUC test_system="MS2 coat protein" result="157 nM"

(Q) Which apparent Kd is reported for this sequence? `UACCCAUUAGAGAAGGUUGACGCCCUAGUUGUCAAAGGAUAUCUCCUCGAGGCUACACAUGAGGAUCACCCAUGUUCACAGGUC`
(A) 8.92 nM

(Q) Note, next up: `AUACCAACGGUCAGGAUAUAGGUAACAAGGAAAGACUAGAAGGGACAUGAGGAUCACCCAUGUUUUAACAUGAU`
(A) 6.89 nM

(Q) Note, next up: `GAACCGUUUGAGAAGGUACACAUUCAGGUCGGUACUGGACAUGAGGAUCACCCAUGUGCCGGUGGUAAGGAUAUCAGAUGAGCU`
(A) 10.4 nM

(Q) Note, next up: `GCUCUGUCAGGAUAUAGGACGGCAACAGGCAAACUAAGCAACUAGAAGGGACAUGAGGAUCACCCAUGUAGCGC`
(A) 9.2 nM

(Q) Note, next up: `UAAUACCAUACAGGAUAUACUUAGCCCAAAACAUGAGGAUCACCCAUGUAUUGGAGUCCUCGGCGGUAGAAGGGUACAGAAAGA`
(A) 16.4 nM

(Q) Note, next up: `UUACAACAUGAGGAUCACCCAUGUUAGGAUAUACGAGGGACAGCGCGGUUAUAUCCCUGUAGAAGGAACACGGG`
(A) 47.6 nM
